Test system: LXRb:RXRa (NR concentration 270 nM, RXRa partner concentration 90 nM)
Test: PBM binding z-score (relative to random genomic background probes); higher = stronger binding; sequences stand for … in GC…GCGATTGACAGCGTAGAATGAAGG
Reported Property: PBM binding z-score
Write no unit; give the number alone.

Below are worked cases with known answers.
1) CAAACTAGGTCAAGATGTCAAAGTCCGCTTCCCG    2.4
2) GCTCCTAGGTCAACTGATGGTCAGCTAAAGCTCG    3.01

The record that follows has no PBM binding z-score shown yet.
Task: // fetch PBM binding z-score given entry `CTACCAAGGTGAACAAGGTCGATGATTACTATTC`
Output: 1.18

---

System: PPARg homodimer (NR concentration 180 nM)
Test: PBM binding z-score (relative to random genomic background probes); higher = stronger binding; sequences stand for … in GC…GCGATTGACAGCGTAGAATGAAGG
Reported Property: PBM binding z-score
Write no unit; give the number alone.

Below are worked cases with known answers.
1) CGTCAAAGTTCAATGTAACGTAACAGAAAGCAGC    2.6
2) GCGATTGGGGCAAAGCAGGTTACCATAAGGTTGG    0.213
3) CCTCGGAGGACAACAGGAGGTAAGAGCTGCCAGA    0.0253
4) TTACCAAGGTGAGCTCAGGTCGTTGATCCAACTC    -0.274
5) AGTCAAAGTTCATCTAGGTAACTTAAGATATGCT    4.01

Task: Give PBM binding z-score for this entry on PPARg homodimer (NR concentration 180 nM): `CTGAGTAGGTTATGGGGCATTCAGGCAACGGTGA`
Output: 0.463

Task: Give PBM binding z-score for this entry on PPARg homodimer (NR concentration 180 nM): `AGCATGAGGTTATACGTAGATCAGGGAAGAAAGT`
Output: 0.658

Task: Give PBM binding z-score for this entry on PPARg homodimer (NR concentration 180 nM): `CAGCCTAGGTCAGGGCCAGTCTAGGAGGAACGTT`
Output: 0.16

Task: Give PBM binding z-score for this entry on PPARg homodimer (NR concentration 180 nM): `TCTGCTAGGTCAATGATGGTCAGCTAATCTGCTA`
Output: 0.244

Task: Give PBM binding z-score for this entry on PPARg homodimer (NR concentration 180 nM): `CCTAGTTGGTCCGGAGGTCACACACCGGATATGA`
Output: 2.74

Task: Give PBM binding z-score for this entry on PPARg homodimer (NR concentration 180 nM): `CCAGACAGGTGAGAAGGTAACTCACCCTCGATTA`
Output: 0.968

Task: Give PBM binding z-score for this entry on PPARg homodimer (NR concentration 180 nM): `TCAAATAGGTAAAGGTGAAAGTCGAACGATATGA`
Output: 2.04

Task: Give PBM binding z-score for this entry on PPARg homodimer (NR concentration 180 nM): `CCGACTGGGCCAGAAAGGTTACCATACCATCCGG`
Output: 0.203

Task: Give PBM binding z-score for this entry on PPARg homodimer (NR concentration 180 nM): `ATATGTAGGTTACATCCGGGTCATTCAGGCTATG`
Output: 2.15

Task: Give PBM binding z-score for this entry on PPARg homodimer (NR concentration 180 nM): `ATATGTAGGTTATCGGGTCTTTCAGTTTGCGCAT`
Output: 2.02

Task: Give PBM binding z-score for this entry on PPARg homodimer (NR concentration 180 nM): `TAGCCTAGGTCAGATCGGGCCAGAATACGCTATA`
Output: 0.124

Task: Give PBM binding z-score for this entry on PPARg homodimer (NR concentration 180 nM): `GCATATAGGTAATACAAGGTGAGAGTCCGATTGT`
Output: 0.397

Task: Give PBM binding z-score for this entry on PPARg homodimer (NR concentration 180 nM): `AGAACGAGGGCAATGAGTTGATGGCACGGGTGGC`
Output: -0.0227
